target: Epidermal growth factor receptor (Homo sapiens); conditions: 20 uM
Sequence (P00533 whole entry): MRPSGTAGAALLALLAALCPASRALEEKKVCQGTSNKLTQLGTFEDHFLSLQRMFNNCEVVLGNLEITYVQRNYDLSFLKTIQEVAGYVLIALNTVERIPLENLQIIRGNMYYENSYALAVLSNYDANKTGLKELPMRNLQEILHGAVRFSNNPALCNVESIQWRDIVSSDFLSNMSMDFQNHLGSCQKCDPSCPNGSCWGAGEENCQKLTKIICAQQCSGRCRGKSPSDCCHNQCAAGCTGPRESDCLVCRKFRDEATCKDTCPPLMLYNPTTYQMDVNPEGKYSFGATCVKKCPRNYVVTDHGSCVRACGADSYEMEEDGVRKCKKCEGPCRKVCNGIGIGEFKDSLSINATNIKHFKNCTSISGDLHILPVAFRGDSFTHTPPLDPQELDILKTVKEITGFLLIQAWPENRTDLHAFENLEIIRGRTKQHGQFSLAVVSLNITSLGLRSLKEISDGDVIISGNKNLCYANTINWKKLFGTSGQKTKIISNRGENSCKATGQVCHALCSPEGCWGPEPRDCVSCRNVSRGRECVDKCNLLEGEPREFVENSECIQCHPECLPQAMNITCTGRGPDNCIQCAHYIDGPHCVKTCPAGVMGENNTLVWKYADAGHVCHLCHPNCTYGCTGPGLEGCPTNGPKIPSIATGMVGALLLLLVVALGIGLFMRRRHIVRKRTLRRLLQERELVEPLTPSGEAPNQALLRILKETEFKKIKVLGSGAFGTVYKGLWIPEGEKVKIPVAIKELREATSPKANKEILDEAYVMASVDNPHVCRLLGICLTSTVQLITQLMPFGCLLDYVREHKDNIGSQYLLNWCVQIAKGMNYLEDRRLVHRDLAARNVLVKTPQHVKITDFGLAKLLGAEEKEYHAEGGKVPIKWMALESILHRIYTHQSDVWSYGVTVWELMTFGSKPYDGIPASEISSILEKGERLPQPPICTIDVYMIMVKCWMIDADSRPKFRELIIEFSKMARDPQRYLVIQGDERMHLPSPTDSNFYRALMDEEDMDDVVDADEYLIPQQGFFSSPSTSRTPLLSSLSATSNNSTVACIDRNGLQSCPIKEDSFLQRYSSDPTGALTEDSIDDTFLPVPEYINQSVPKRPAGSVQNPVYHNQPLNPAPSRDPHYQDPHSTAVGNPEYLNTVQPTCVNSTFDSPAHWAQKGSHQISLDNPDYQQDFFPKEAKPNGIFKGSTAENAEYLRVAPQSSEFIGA
Description: Inhibitory activity against EGFR kinase at 20 uM
experimental.endpoint: inhibition (%)

COC(=O)c1c(OCc2ccc(C(F)(F)F)cc2)c2ccccc2c2oc3c(c12)C(=O)c1ccccc1C3=O :: 33.6

P. COC(=O)c1c(OCCN2CCCCC2)c2ccccc2c2oc3c(c12)C(=O)c1ccccc1C3=O
Q. COC(=O)c1c(OCc2ccncc2)c2ccccc2c2oc3c(c12)C(=O)c1ccccc1C3=O
R. COC(=O)c1c(OCCN2CCN(Cc3ccc(C(F)(F)F)cc3)CC2)c2ccccc2c2oc3c(c12)C(=O)c1ccccc1C3=O
Your job: order these 3 records by inhibition, ascending. Ranked list of labels, please, in the requested order.
Q, R, P

----------
target: Epidermal growth factor receptor (Homo sapiens); details: 20 uM
experimental.endpoint: inhibition (%)

N#CC(C#N)=C(N)/C(C#N)=C/c1cc(O)c(O)c(O)c1 :: 90
COC(=O)c1c(OC)c2ccccc2c2oc3c(c12)C(=O)c1ccccc1C3=O :: 16.7
COC(=O)c1c(O)c2ccccc2c2oc3c(c12)C(=O)c1ccccc1C3=O :: 21.4
CCCOc1c(C(=O)OC)c2c3c(oc2c2ccccc12)C(=O)c1ccccc1C3=O :: 38.7

a. COC(=O)c1c(OCCCN(C)C)c2ccccc2c2oc3c(c12)C(=O)c1ccccc1C3=O
b. COC(=O)c1c(OC(C)=O)c2ccccc2c2oc3c(c12)C(=O)c1ccccc1C3=O
So which one has the bigger inhibition here, a or b ? Identify your pick by its label.
a

----------
molecular target: Fibroblast growth factor receptor 1 (Homo sapiens, UniProt P11362); assay: Inhibitory activity against FGFR1 kinase at 20 uM
Sequence (P11362 22-822 limits assumed): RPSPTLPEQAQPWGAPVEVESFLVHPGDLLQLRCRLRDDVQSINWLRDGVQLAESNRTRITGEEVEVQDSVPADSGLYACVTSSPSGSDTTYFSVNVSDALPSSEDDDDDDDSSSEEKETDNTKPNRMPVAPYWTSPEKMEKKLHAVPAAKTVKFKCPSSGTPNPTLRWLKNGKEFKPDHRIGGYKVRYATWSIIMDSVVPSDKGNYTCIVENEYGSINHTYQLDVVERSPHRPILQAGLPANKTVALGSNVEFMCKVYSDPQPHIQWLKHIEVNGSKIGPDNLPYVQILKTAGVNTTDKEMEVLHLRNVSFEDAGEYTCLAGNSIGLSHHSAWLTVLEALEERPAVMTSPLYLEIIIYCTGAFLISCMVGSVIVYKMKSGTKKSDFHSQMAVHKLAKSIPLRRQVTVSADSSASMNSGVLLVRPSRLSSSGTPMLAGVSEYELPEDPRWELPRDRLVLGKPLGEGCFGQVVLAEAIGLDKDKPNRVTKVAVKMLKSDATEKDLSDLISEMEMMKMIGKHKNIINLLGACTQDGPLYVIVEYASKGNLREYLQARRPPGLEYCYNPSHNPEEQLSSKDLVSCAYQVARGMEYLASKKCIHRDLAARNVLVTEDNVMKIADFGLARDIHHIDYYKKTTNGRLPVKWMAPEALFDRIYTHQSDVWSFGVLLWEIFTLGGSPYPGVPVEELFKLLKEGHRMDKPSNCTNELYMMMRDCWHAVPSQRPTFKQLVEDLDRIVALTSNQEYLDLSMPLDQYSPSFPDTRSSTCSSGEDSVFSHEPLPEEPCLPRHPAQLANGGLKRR
experimental.endpoint: inhibition (%)

COC(=O)c1c(OCCN2CCCCC2)c2ccccc2c2oc3c(c12)C(=O)c1ccccc1C3=O :: 79.1
COC(=O)c1c(OCCN2CCN(Cc3ccc(C(F)(F)F)cc3)CC2)c2ccccc2c2oc3c(c12)C(=O)c1ccccc1C3=O :: 48.2
COC(=O)c1c(OCc2ccncc2)c2ccccc2c2oc3c(c12)C(=O)c1ccccc1C3=O :: 2.6
COC(=O)c1c(OCCN2CCOCC2)c2ccccc2c2oc3c(c12)C(=O)c1ccccc1C3=O :: 41.4
COC(=O)c1c(OCc2ccc(C(=O)OC(C)(C)C)cc2)c2ccccc2c2oc3c(c12)C(=O)c1ccccc1C3=O :: 50.8

P. COC(=O)c1c(OCCCN2CCN(c3ccccc3Cl)CC2)c2ccccc2c2oc3c(c12)C(=O)c1ccccc1C3=O
Q. N#CC(C#N)=C(N)/C(C#N)=C/c1cc(O)c(O)c(O)c1 [TYRPHOSTIN 51]
inhibition comparison. Which is larger, P or Q ? Write down the label of the entry you select.
Q

----------
target: Vascular endothelial growth factor receptor 2 (Homo sapiens); assay: Inhibitory activity against VEGFR2 kinase at 20 uM
Sequence (P35968 whole entry): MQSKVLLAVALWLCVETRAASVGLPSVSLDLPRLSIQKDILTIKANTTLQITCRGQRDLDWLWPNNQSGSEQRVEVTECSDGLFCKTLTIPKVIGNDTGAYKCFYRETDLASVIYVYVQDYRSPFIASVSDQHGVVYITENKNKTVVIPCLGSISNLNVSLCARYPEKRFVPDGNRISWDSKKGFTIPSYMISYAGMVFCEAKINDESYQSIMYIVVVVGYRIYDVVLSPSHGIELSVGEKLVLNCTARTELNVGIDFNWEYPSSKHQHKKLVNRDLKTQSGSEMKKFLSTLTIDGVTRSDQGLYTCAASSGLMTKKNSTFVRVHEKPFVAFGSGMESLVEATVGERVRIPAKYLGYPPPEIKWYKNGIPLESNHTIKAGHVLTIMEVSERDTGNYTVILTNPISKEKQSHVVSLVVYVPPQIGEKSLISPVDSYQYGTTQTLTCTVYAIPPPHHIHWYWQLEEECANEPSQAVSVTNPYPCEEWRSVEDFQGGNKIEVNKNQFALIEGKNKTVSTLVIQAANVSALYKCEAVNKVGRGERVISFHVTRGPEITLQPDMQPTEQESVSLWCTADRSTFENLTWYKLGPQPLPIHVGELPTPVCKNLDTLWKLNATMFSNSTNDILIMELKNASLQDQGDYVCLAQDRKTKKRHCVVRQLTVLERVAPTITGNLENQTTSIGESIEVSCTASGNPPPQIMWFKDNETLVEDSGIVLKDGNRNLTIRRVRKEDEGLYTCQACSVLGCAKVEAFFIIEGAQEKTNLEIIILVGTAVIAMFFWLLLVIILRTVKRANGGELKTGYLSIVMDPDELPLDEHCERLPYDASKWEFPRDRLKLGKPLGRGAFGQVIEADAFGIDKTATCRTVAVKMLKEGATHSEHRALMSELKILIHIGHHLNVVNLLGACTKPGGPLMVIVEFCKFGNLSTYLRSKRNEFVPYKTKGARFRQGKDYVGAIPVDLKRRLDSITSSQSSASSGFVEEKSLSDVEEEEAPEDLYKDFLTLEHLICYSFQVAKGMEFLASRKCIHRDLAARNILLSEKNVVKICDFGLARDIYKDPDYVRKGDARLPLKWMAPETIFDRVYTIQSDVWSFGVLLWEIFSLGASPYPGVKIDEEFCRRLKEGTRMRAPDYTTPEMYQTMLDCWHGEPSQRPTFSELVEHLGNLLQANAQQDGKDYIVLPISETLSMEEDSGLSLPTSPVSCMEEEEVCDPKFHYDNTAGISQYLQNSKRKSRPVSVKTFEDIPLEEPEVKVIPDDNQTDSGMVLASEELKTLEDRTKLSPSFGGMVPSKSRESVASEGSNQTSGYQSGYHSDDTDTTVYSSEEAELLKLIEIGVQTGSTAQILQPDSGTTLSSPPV
experimental.endpoint: inhibition (%)

COC(=O)c1c(OCc2ccc(C(F)(F)F)cc2)c2ccccc2c2oc3c(c12)C(=O)c1ccccc1C3=O :: 40.9

I. COC(=O)c1c(OCCN2CCCCC2)c2ccccc2c2oc3c(c12)C(=O)c1ccccc1C3=O
II. COC(=O)c1c(O)c2ccccc2c2oc3c(c12)C(=O)c1ccccc1C3=O
III. COC(=O)c1c(OCc2ccc(C(=O)OC(C)(C)C)cc2)c2ccccc2c2oc3c(c12)C(=O)c1ccccc1C3=O
// sort entries: inhibition, high to low Answer with the labels in sequence, matching the requested order.
I, III, II

----------
target: Epidermal growth factor receptor (Homo sapiens); conditions: 20 uM
experimental.endpoint: inhibition (%)

CCN(CC)CCOc1c(C(=O)OC)c2c3c(oc2c2ccccc12)C(=O)c1ccccc1C3=O :: 82.1
COC(=O)c1c(OCCN2CCCC2)c2ccccc2c2oc3c(c12)C(=O)c1ccccc1C3=O :: 77.1
COC(=O)c1c(OCCCN2CCN(c3ccccc3Cl)CC2)c2ccccc2c2oc3c(c12)C(=O)c1ccccc1C3=O :: 68.3
COC(=O)c1c(OCc2ccc(C(=O)OC(C)(C)C)cc2)c2ccccc2c2oc3c(c12)C(=O)c1ccccc1C3=O :: 57.1
COC(=O)c1c(OCCN2CCOCC2)c2ccccc2c2oc3c(c12)C(=O)c1ccccc1C3=O :: 67.9
COC(=O)c1c(OCCN(C)C)c2ccccc2c2oc3c(c12)C(=O)c1ccccc1C3=O :: 71
COC(=O)c1c(OCc2ccc(OC)cc2)c2ccccc2c2oc3c(c12)C(=O)c1ccccc1C3=O :: 72.6

These entries and their values trace back to ChEMBL document CHEMBL1149378.
